Reference for the values: the supplement of paper PMC13380429

Tested on: Calu-3
assay remarks: drug sensitivity score (DSS) for viability; higher = more toxic; extreme values may be limits of the assay
experimental parameters: 72 h
Assign drug sensitivity score to each entry below.
One number for each entry.

>>> print(df.to_string())
                                   compound  reported_value
0  Cc1cccn2c(=O)c(/C=C(\C#N)c3nc4ccccc4s3)c(Oc3ccc(F)cc3)nc12               0

Give one value of drug sensitivity score per listed compound.
1. CCCCCCCCCCCCCCCCO [1-hexadecanol]
2. COc1cc(C(=O)NC2CCN(C)CC2)c(F)cc1Nc1ncc2c(n1)N(C1CCCC1)CC(F)(F)C(=O)N2C [TAK-960]
3. COc1cc(N)c(Cl)cc1C(=O)NC1CCN(Cc2ccccc2)CC1 [clebopride]
4. Cc1cc(-c2nc(C(=O)Nc3cn(C4CCOCC4)nc3C(N)=O)co2)ccn1

*A*
1: 0; 2: 4.3; 3: 0; 4: 0

====

Assignment: determine reported cell viability for the given compounds.
Test system: Caco-2
assay remarks: cell viability relative to DMSO; higher = less toxic
experimental parameters: 72 h; 100 nM
One number for each entry, in %.

compound	cell viability / %
COc1cc(C#N)ccc1S(=O)(=O)Nc1ccc2c(c1)cc(C)c(=O)n2C [NI-57]	94.8
CC1(C)O[C@H]2CC(=O)OC[C@]23[C@H]2CC[C@@]4(C)[C@H](c5ccoc5)OC(=O)[C@H]5O[C@]54[C@]2(C)C(=O)C[C@@H]13 [limonin]	106
O=C1C(CC[S+]([O-])c2ccccc2)C(=O)N(c2ccccc2)N1c1ccccc1 (configuration not stated) [sulfinpyrazone]	98.5
C/C=C/C[C@@H](C)C(=O)[C@H]1C(=O)N[C@@H](C(C)C)C(=O)N(C)CC(=O)N(C)[C@@H](CC(C)C)C(=O)N[C@@H](C(C)C)C(=O)N(C)[C@@H](CC(C)C)C(=O)N[C@@H](C)C(=O)N[C@H](C)C(=O)N(C)[C@@H](CC(C)C)C(=O)N(C)[C@@H](CC(C)C)C(=O)N(C)[C@@H](C(C)C)C(=O)N1C [valspodar]	106
O=C(O)c1cc(O)c2ccc(Cl)cc2n1 [7-chlorokynurenic-acid]	97.1
CC(/C=C/C(=O)NO)=C\[C@@H](C)C(=O)c1ccc(N(C)C)cc1 [trichostatin-a]	37.1

The compound CC#CC(=O)N1CCC[C@H]1c1nc(-c2ccc(C(=O)Nc3ccccn3)cc2)c2c(N)nccn12 [acalabrutinib] showed cell viability equal to 99.4

====

System: Vero E6
assay remarks: cell viability relative to DMSO; higher = less toxic
experimental parameters: 72 h; 100 nM
Give cell viability for every item shown.
Numbers only, in %.

molecule	metric name	reported value
C[C@@H]1O[C@@H](O[C@@H]2[C@@H](O)[C@H](OCCc3ccc(O)c(O)c3)O[C@H](CO)[C@H]2OC(=O)/C=C/c2ccc(O)c(O)c2)[C@H](O)[C@H](O)[C@H]1O [verbascoside]	cell viability	94.4
COC(=O)N[C@H](C(=O)N1CCC[C@H]1c1nc(-c2ccc3c(c2)O[C@@H](c2ccccc2)n2c-3cc3cc(-c4c[nH]c([C@@H]5CCCN5C(=O)[C@@H](NC(=O)OC)C(C)C)n4)ccc32)c[nH]1)C(C)C [elbasvir]	cell viability	95.3
COc1ccccc1N1CCN(CCCCN2C(=O)c3ccccc3C2=O)CC1 [NAN-190]	cell viability	91.5

Here is another molecule to look at.
Recorded cell viability (molecule COc1cc(SC)ccc1C(=O)N1CCC(Cc2ccccc2)CC1 [JX-401] ): 99.8

====

Provide the reported relative viability EC50 of each item.
System: HepG2
assay remarks: relative viability EC50 (midpoint between 100% and the lowest measured viability); higher = less toxic
experimental parameters: 72 h

Could you tell me relative viability EC50 for each of these molecules? They are listed below.
1. CCCN(C/C=C/I)[C@H]1CCc2ccc(O)cc2C1 [7-hydroxy-PIPAT]
2. C/C(=N\Nc1nnc2c(n1)[nH]c1c(C)cccc12)c1ccccn1
3. CCCCCCOc1nsnc1C1=CCCN(C)C1
4. COC(=O)[C@@H]1C[C@H](OC(C)=O)C(=O)[C@H]2[C@@]1(C)CC[C@H]1C(=O)O[C@H](c3ccoc3)C[C@]21C
5. CCOC(=O)c1ccc(N2NC(=O)/C(=C/c3ccc([N+](=O)[O-])o3)C2=O)cc1
6. COc1cc(O)c(C(=O)c2ccccc2)cc1S(=O)(=O)O

*A*
> 10 µM
0.319 µM
> 10 µM
> 10 µM
> 10 µM
> 10 µM

Dear colleague, could you send me relative viability EC50 for each of the items below? Thanks.
1. Oc1ccc2ccccc2c1
2. Cn1nnc2c(C(N)=O)ncn2c1=O [temozolomide]
3. CCCCc1cc2ccccc2c(OCCN(C)C)n1
4. CCCCCC(=O)O[C@]1(C(C)=O)CC[C@H]2[C@@H]3CCC4=CC(=O)CC[C@]4(C)[C@H]3CC[C@@]21C [17-hydroxyprogesterone-caproate]
5. COC(=O)c1ccccc1NC(=O)c1ccc(F)cc1 [EXO-1]
6. C/C(=C\c1csc(C)n1)[C@@H]1C[C@@H]2O[C@]2(C)CCC[C@H](C)[C@H](O)[C@@H](C)C(=O)C(C)(C)[C@@H](O)CC(=O)N1 [ixabepilone]
7. CN(C)CCOC(C)(c1ccccc1)c1ccccn1 (stereo not drawn)
8. CN1C2C=C(c3sccc3Br)CC1CC2 (stereo not drawn)

*A*
1. > 10 µM
2. > 10 µM
3. > 10 µM
4. > 10 µM
5. > 10 µM
6. 0.0721 µM
7. > 10 µM
8. > 10 µM

Go through the items and report each one's relative viability EC50.
1. CCCC[C@]1(CC)CS(=O)(=O)c2cc(CNC(CC(=O)O)CC(=O)O)c(OC)cc2[C@@H](c2ccccc2)N1
2. Clc1ccc(COC(Cn2ccnc2)c2ccc(Cl)cc2Cl)c(Cl)c1 (stereo not drawn)
3. Cc1nn(-c2ccccc2)c(C)c1/C=N/N1CCN(Cc2ccccc2)CC1
4. Cc1ccc(C(=O)Nc2cccc(C(F)(F)F)c2)cc1Nc1nc(-c2cccnc2)nc2c1cnn2C

*A*
1: > 10 µM; 2: > 10 µM; 3: > 10 µM; 4: 0.264 µM

====

Tested on: Calu-3
assay remarks: cell viability relative to DMSO; higher = less toxic
experimental parameters: 72 h; 10 nM
metric name: cell viability (%)
Numbers only, in %.

>>> print(df.to_string())
                                   molecule     metric_name  reading_unit  reported_value
0  COc1ccccc1N1CCN(CCCCN2C(=O)c3ccccc3C2=O)CC1 [NAN-190]  cell viability             %            94.3

State the recorded cell viability for every item in the following list.
1. O=c1cc(N2CCOCC2)oc2c(-c3ccccc3)cccc12
2. Cn1nnc(-c2ccc(-c3ccc(N4C[C@H](CO)OC4=O)cc3F)cn2)n1 [tedizolid]
3. CCC1(CC)C(=O)NC(=O)N(C)C1=O [metharbital]
4. COc1ccc2cc1Oc1ccc(cc1)C[C@H]1c3cc(c(OC)cc3CCN1C)Oc1c(OC)c(OC)cc3c1[C@H](C2)N(C)CC3 [tetrandrine]
5. C[C@H]1C[C@H]2[C@@H]3CCC4=CC(=O)C=C[C@]4(C)[C@@]3(F)[C@@H](O)C[C@]2(C)[C@@]1(O)C(=O)CO [betamethasone]
6. O=S(=O)(NCCCCCCc1ccccc1)c1cccc2c(Cl)cccc12 [SC-9]
7. CN(Cc1ccccc1)C(=O)[C@H](Cc1ccc2ccccc2c1)NC(=O)[C@@H]1CCCN1C(=O)Nc1ccccc1[N+](=O)[O-] [SDZ-NKT-343]
8. CCCCCC(O)CCCC(=O)O (stereo not drawn)

*A*
1. 93.7
2. 95.4
3. 92.6
4. 109
5. 107
6. 108
7. 93.7
8. 103

====

Give measured cell viability for each item. Keep answers brief.
Test system: Caco-2
assay remarks: cell viability relative to DMSO; higher = less toxic
experimental parameters: 72 h; 10000 nM
Give bare numbers, in %.

compound	reading unit	reported value
FC(F)(F)c1ccc(CNc2ccc(Cc3c[nH]c4ncccc34)cn2)cc1	%	91.3
O=C(O)CCc1nc(-c2ccccc2)c(-c2ccccc2)o1	%	101
CCN(CC)CCN[C@@H](C(=O)OCCC(C)C)c1ccccc1 [camylofine-chlorhydrate]	%	85.6
Cc1ccc(-c2c(-c3nn(C)c4ncnc(N5CC[C@H](N6CCCCC6)C5)c34)cnn2C)cc1	%	100
CC(=O)OC[C@H]1O[C@@](COC(C)=O)(O[C@H]2O[C@H](COC(C)=O)[C@@H](OC(C)=O)[C@H](OC(C)=O)[C@H]2OC(C)=O)[C@@H](OC(C)=O)[C@@H]1OC(C)=O [sucrose-octaacetate]	%	98.4

For each of the compounds below, state cell viability.
1. CN1CCN(C(=O)c2nc3ccc(Cl)cc3[nH]2)CC1
2. C[C@@H]1C[C@H]2[C@@H]3CCC4=CC(=O)C=C[C@]4(C)[C@@]3(F)[C@@H](O)C[C@]2(C)[C@@]1(O)C(=O)COP(=O)(O)O [DEXAMETHASONE SODIUM PHOSPHATE]

*A*
[90.9, 97.5]
